Origin of the recorded values: patent US20230159511A1

ASSAY SYSTEM: human KEAP1 (N-term, residues 321-609) (Homo sapiens, UniProt Q14145)
Construct: human KEAP1 (N-term, residues 321-609)
Sequence (Q14145 321-609): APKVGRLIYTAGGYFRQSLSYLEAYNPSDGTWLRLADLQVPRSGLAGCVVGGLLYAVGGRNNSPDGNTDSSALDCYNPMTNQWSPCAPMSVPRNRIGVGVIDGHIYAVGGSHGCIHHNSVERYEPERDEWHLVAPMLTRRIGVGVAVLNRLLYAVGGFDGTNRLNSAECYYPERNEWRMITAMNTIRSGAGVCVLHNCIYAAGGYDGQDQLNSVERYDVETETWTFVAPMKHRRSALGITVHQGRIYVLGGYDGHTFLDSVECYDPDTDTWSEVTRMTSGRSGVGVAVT
ASSAY: KEAP1 Kelch Fluorescence Polarization (FP) Assay
CONDITIONS USED: inhibition of Kelch domain-NRF2 interaction; 2 nM FITC-labelled NRF2 peptide, 25 nM KEAP1, 1 h room temperature; compounds below 10 nM cannot be differentiated
pIC50: −log10 of the molar value.
Quick reference: pIC50 of the listed items.
OBSERVABLE: pIC50

smiles_string=CNC(=O)[C@H]1CCCC[C@H]1C(=O)N1CCc2c(Br)ccc(OCc3nnn(C)c3C(F)F)c2[C@H]1CN1Cc2ccccc2C1=O observable=pIC50 reading=7.89
smiles_string=CCC(=O)NC[C@@H]1c2c(cccc2O[C@H]2CCN(C(=O)c3cncs3)C2)CCN1C(=O)[C@@H]1CCCC[C@@H]1C(=O)NC observable=pIC50 reading=5.27
smiles_string=CNC(=O)[C@@]1(C)CCCC[C@H]1C(=O)N1CCc2c(Cl)cc(F)c(OCc3nnn(C)c3C(F)F)c2[C@H]1CN1CC2(CC2)CC1=O observable=pIC50 reading=8.17
smiles_string=CNC(=O)[C@H]1CCCC[C@H]1C(=O)N1CCc2cccc(O[C@H]3CCN(C(=O)c4sc(C)nc4C)C3)c2[C@H]1CN1C(=O)c2ccccc2C1=O observable=pIC50 reading=6.22
smiles_string=CNC(=O)[C@@]1(C)CCCC[C@H]1C(=O)N1CCc2c(Cl)ccc(OCc3nnn(C)c3C(F)(F)F)c2[C@H]1CN1CC2(CC2)CC1=O observable=pIC50 reading=8.05
smiles_string=CNC(=O)N1CCCC[C@H]1C(=O)N1CCc2c(Cl)ccc(OCc3cn(C)nn3)c2[C@H]1CN1CCCC1=O observable=pIC50 reading=7.92
